Recorded values, source PubChem BioAssay (NCI).

Test system: HCT-116 colon
TEST_NAME: NCI tumour cell line growth inhibition, 48 h
Where a SMILES comes first, the peptide text is derived from it. The star is where a group is joined. ONb = O=[N+]([O-])c1ccc(CO*)cc1; Boc = CC(C)(C)OC(=O)*
Measured TGI of individual entries
REPORTED_METRIC: TGI

- MOLECULE: "Cc1cc(Cc2c(F)c(F)c(C(c3cc(C)no3)c3c(F)c(F)c(F)c(F)c3F)c(F)c2F)on1 (stereo not drawn)"
  REPORTED_METRIC: "TGI"
  RESULT: "> 100 µM"
- MOLECULE: "O=C(/C=C/c1cc(O)c(O)cc1O)OCCc1ccccc1"
  REPORTED_METRIC: "TGI"
  RESULT: "> 58.4 µM"
- MOLECULE: "CC(C)CC(NC(=O)OC(C)(C)C)C(=O)NC(CCC(=O)OCc1ccc([N+](=O)[O-])cc1)C(=O)OCc1ccc([N+](=O)[O-])cc1 (stereo not drawn) (Boc-Leu-Glu(ONb)-ONb; configuration not given here)"
  REPORTED_METRIC: "TGI"
  RESULT: "> 100 µM"
- MOLECULE: "Cc1cc(N(CCNc2ccnc3cc(Cl)ccc23)Cc2ccco2)nc(Cl)n1"
  REPORTED_METRIC: "TGI"
  RESULT: "2.84 µM"
- MOLECULE: "CN1C(=O)[C@@H]2[C@@H]3c4ccccc4N(S(=O)(=O)C(F)(F)F)[C@@H]3c3[nH]c4ccccc4c3[C@@H]2C1=O"
  REPORTED_METRIC: "TGI"
  RESULT: "> 100 µM"
- MOLECULE: "CCOc1ccc(/C=N/[N+](C)(C)C)cc1OCC"
  REPORTED_METRIC: "TGI"
  RESULT: "> 10 µM"
- MOLECULE: "CC1OC2(CC(OCc3ccccc3)C1OCc1ccccc1)OCCO2 (stereo not drawn)"
  REPORTED_METRIC: "TGI"
  RESULT: "> 100 µM"
- MOLECULE: "Cc1cc(Cl)ccc1NC(=O)c1cc2ccccc2cc1O"
  REPORTED_METRIC: "TGI"
  RESULT: "> 100 µM"
